Property: melting point; scope: individual molecules
Condition Label: a range is the spread between reports

// known answers, use as guide
Lookup: Can you look up the measured melting point of O=[N+]([O-])c1ccc(Br)cc1 for me?
Found: 126 to 127 °C

Lookup: What value of melting point has been reported for the following molecule? CCCCCCCCCCC=O
Found: -4 to 0 °C

Others:
Lookup: Name the recorded melting point for Nc1cccc(Oc2ccccc2)c1 .
Found: 36 to 37 °C

Lookup: # query: melting point of entry Nc1ccc(Oc2ccccc2)cc1
Found: 83 to 84 °C

Lookup: Fill blank: measured melting point of the molecule C=C1C2CCC(C2)C1(C)C (stereo not drawn) is ____.
Found: 50 to 52 °C

Lookup: Which melting point value is on record for O=C(O)CCOc1ccccc1 ?
Found: 97.5 to 98 °C

Lookup: Look up melting point: CC=C(C)CC
Found: -138 to -135 °C

Lookup: Recorded melting point for CCSCC , please?
Found: -104 °C

* * *

Condition Label: a range is the spread between reports
Listed here are molecules together with their documented melting point.

Consider the reported melting point for these molecules:
Lookup: Given the molecule CCc1ccc(C)cc1C , what is its reported melting point?
Found: -63 to -62.9 °C

Lookup: Quick one: melting point of O=C1c2ccccc2C(=O)c2c(O)ccc(O)c21 ?
Found: 197 to 200 °C

Lookup: Returns the measured melting point for the input molecule. Input: Cc1cccc(Cl)c1
Found: -48 to -47.8 °C

Lookup: What value of melting point has been reported for the following molecule? O=C(O)c1cc(Cl)ccc1[N+](=O)[O-]
Found: 138 to 139 °C

Lookup: What does the data say about its melting point? Entry: C=CC(C)(C)C
Found: -115 °C

New cases:
Lookup: Would you kindly share the measured melting point for C=C(C)C(C)(C)C ?
Found: -110 °C

Lookup: Please look up its melting point: CCCc1cc(O)nc(S)n1
Found: 219 to 220 °C

* * *

Condition Label: a range is the spread between reports
Reported melting point by item:

Lookup: Param item = OCc1cc(Br)ccc1O ; retrieve measured melting point.
Found: 109 to 113 °C

Lookup: Look up melting point for this compound: CC(C)C=O
Found: -65.9 to -65 °C

Lookup: Name the recorded melting point for CC(C)CCCC(C)C1CCC2C3CC(O)C4(O)CC(O)CCC4(C)C3CCC12C (configuration not stated) .
Found: 237 to 238 °C

Lookup: May I ask what melting point has been recorded for COC(N)=O ?
Found: 54 to 55 °C

Lookup: What measured melting point goes with O=C(Cl)c1ccccc1C(=O)Cl ?
Found: 12 to 15.5 °C

Lookup: # get_value(readout='melting point', item= Cc1cc(Br)c(C)cc1Br )
Found: 73 to 74 °C

* * *

Condition Label: a range is the spread between reports
Measured Property: melting point (°C)

Lookup: Query: melting point; subject: CC(=O)N[C@@H](CS)C(=O)O
Found: 110

Lookup: Fill in: melting point of O=C(O)CCCC(=O)c1ccccc1 is ___
Found: 127

Lookup: Item under review: C=CCBr . Reported melting point?
Found: -119

* * *

Condition Label: a range is the spread between reports
Examples of compounds with documented melting point follow.

Known melting point results, listed for orientation:
Lookup: For the compound shown here, Cn1c(=O)n(C)c(=O)n(C)c1=O , give the reported melting point.
Found: 176 °C

Lookup: Returns the measured melting point for the input compound. Input: O=[N+]([O-])c1c(Cl)c(Cl)c(Cl)c(Cl)c1Cl
Found: 142 to 144 °C

Lookup: melting point for O=CC1CCCCC1 ?
Found: 34.5 to 35 °C

Lookup: Would you kindly share the measured melting point for C=CCCC ?
Found: -165 to -162 °C

Lookup: Which melting point value belongs to CCCc1ccc(C(=O)O)cc1 ?
Found: 142 to 143 °C

Lookup: I have this compound here, CCCCCCCCCCCCCCCC(=O)OC(C)C , and I need its recorded melting point.
Found: 12 to 13.5 °C

Further cases:
Lookup: Suppose we examine the compound Cc1ccc(Cc2ccc(C)cc2)cc1 ; what melting point value has been reported?
Found: 28 to 29 °C

Lookup: For SCc1ccc(Cl)cc1 , what is its reported melting point?
Found: 19 to 20 °C

Lookup: Consider the compound shown here: OC(c1ccc(Cl)cc1)(c1ccc(Cl)cc1)C(Cl)(Cl)Cl What is its recorded melting point?
Found: 77.5 to 78.5 °C

Lookup: Fill in the blank: the reported melting point of NC(=O)c1ccc(N)cc1 is ____.
Found: 182 to 183 °C

Lookup: Quick check: melting point of O=C1C(F)=C(F)C(=O)C(F)=C1F ?
Found: 179 to 184 °C

Lookup: Requested read-out: melting point. Entry: COCCOC(C)=O
Found: -65.1 to -65 °C

Lookup: Given O=C(O)CCc1ccc(O)cc1 , state its recorded melting point.
Found: 129 to 131 °C

Lookup: Which measured melting point value corresponds to BrCC(Br)(Br)CBr ?
Found: 10.5 to 11 °C

Lookup: Fill blank: measured melting point of the compound OCCCCCCCCCCO is ____.
Found: 72 to 74 °C

Lookup: Report melting point for Cc1cc(C)cc([N+](=O)[O-])c1 please.
Found: 71 to 75 °C

Lookup: Dear colleague, I am looking for the recorded melting point of the following compound: O=C(OCc1ccccc1)c1ccccc1C(=O)OCc1ccccc1
Found: 41 to 44 °C
